tested on: Cryptococcus neoformans; conditions: Concentration 20 uM; ASSAY_TEST Inhibition of Fungal Growth; detection method Resazurin; Absorption (OD600-OD570); plate type 384well; NBS; CORNING #3640
Description: Antifungal activity against Cryptococcus neoformans H99 ATCC 208821 (CO-ADD:FG_002); MIC in YNB media using NBS plates, by Resazurin OD(600-570)
Potency and affinity values are given separately.
Readout type: Inhibition (%)
Respond with the bare value in %.

Query block: Which Inhibition is reported for this compound? Clc1nc(Cl)nc(-c2cn(-c3ccccc3)c3ccccc23)n1
Result block: 5.66

Query block: Quick one: Inhibition for N#Cc1nnn2c1nc(N)c1c(Cl)cccc12 ?
Result block: -4.78

---

system: Candida albicans; details: 20 µM
Description: Antifungal activity against Candida albicans ATCC 90028 (CO-ADD:FG_001); MIC in YNB media using NBS plates, by OD630
Results with a measured potency or affinity are listed apart.
Here the recorded Inhibition is given for each entry.
Output spec: scalar in %, unitless text.

Known results for compounds:
Query block: Quick one: Inhibition for Cn1c([N+](=O)[O-])cnc1N1CCN(c2nncs2)C1=O ?
Result block: 1.82

Query block: Which value of Inhibition has been reported for Cc1nn(-c2ccccc2)nc1C(=O)Nc1ccc2[nH]ncc2c1 in the records?
Result block: -0.76

More entries:
Query block: Please look up its Inhibition: Nc1ccc(C(=O)c2cccs2)cn1
Result block: 8.82

Query block: Entry under review: O=C1C2C3C=CC(O3)C2C(=O)N1Nc1ccccc1 (stereo unspecified) . Reported Inhibition?
Result block: 1.05

Query block: For the compound shown here, O=Cc1c[nH]c2ncccc12 , give the reported Inhibition.
Result block: 4.83

Query block: Returns the measured Inhibition for the input compound. Input: O=C1c2cc([N+](=O)[O-])ccc2-c2cc(Br)c(NC(=NO)C(F)(F)F)cc21
Result block: -4.85

Query block: Need Inhibition of OCC(O)C1OCOC(C(O)CO)C1O (stereo unspecified) , thanks.
Result block: 0.45

Query block: Entry Oc1ccnc2c(Cl)cccc12 has what Inhibition?
Result block: 3.54

Query block: Could you share which Inhibition value was measured for CCOC(=O)c1nnsc1-c1ccc(-c2snnc2C(=O)OCC)cc1 ?
Result block: 6.68

Query block: Please report the recorded Inhibition for O=[N+]([O-])c1cccnc1Oc1cccnc1 .
Result block: -2.59
